Data provenance is patent US20230133381A1.

experimental_system: human DR5 (human)
procedure_summary: ELISA: human DR5 coated on the plate (10 ng/ml), antibody titrated, anti-human Fc-HRP, TMB, absorbance at 450 nm
Recorded EC50 (read off the curve) for the following binders
Write the answer as a number in µg/mL, unit excluded.

{"binder": "DA17 (antibody, V domains shown) VH: EVQLVESGGGLVQPGGSLRLSCAASGFTFSSFNMLWVRQAPGKGLEWVAGIGKSDRYTGYGSAVKGRFTISRDDSKSTVYLQMNSLRAEDTAVYYCVRDAGSGCGSGGWTGACIDTWGQGTLVTVSS VL: DIQMTQSPSSLSASVGDRVTITCSGGDSYAGSYYYGWYQQKPGKAPKTLIYNNNNKAKGVPSRFSGSRSGTDFTLTISSLQPEDFATYYCGSRDSSYVGIFGQGTKVEIK", "EC50 (read off the curve), µg/mL": 0.03}

Now look at this entry.
Prompt line: Given the entry DA26 (antibody, V domains shown) VH: AVTLDESGGGLQTPGGGLSLVCKGSGFTFSSFNMLWVRQAPGKGLEWVAGIGKSDRYTGYGSAVKGRATISRDDGQSTVYLQMNSLRAEDTGTYYCVKDAGSGCGSGGWTGACIDTWGHGTEVIVSS VL: LTQPSSVSANLGGTVEITCSGGDSYAGSYYYGWYQQKAPGSAPVTVIYNNNNRPSNIPSRFSGSTSGSTATLTITGVQAEDEATYYCGSRDSSYVGIFGAGTTLTVL , report its measured EC50 (read off the curve).
Response line: 0.02
